- targetDesc: human HSP90α (Homo sapiens)
- assay: biochemical
pEC50: −log10 of the molar value.
measuredAttribute: pEC50

compound	targetDesc	pEC50
CC(C)N(C(=O)CON=C1C=CCCC=CCCOC(=O)c2c(O)cc(O)cc2C1)C(C)C	human HSP90α (Homo sapiens)	6.79
CC(C)CN(CC(C)C)C(=O)CON=C1C=CCCC=CCCOC(=O)c2c(O)cc(O)cc2C1	human HSP90α (Homo sapiens)	7.03
O=C(CON=C1C=CCCC=CCCOC(=O)c2c(O)cc(O)cc2C1)NCc1ccccc1	human HSP90α (Homo sapiens)	7.24
O=C1NCCC=CCCC=CC(=NOCC(=O)N2CCCCC2)Cc2c(Cl)c(O)cc(O)c21	human HSP90α (Homo sapiens)	6.70
O=C(CON=C1C=CCCC=CCCOC(=O)c2c(O)cc(O)cc2C1)NC1CCCCC1	human HSP90α (Homo sapiens)	6.81

a = CCC1CCCCN1C(=O)CON=C1C=CCCC=CCCOC(=O)c2c(O)cc(O)cc2C1 (stereo not drawn)
b = CCCC1CC=CCCC(C)=CC(=NOCC(=O)N(CC)CC)Cc2c(Cl)c(O)cc(O)c2C(=O)O1 (stereo not drawn)
c = CCCC1CC=CCCC=CC(=NOCC(=O)N2CCCCC2)Cc2c(Cl)c(O)cc(O)c2C(=O)O1 (stereo not drawn)
d = CC1CC=CCCC=CC(=NOCC(=O)N2CCCCC2)Cc2c(Cl)c(O)cc(O)c2C(=O)O1 (stereo not drawn)
e = O=C1OCCC=CCCC=CC(=NOCC(=O)N2CC=CCC2)Cc2cc(O)cc(O)c21
query: Please put the entries in order of rising pEC50. Answer format: the labels, in the requested order.
result: b, a, c, d, e
(b: 6.05, a: 6.61, c: 7.02, d: 7.41, e: 7.66)

P = CC1CN(C(=O)CON=C2C=CCCC=CCCOC(=O)c3c(O)cc(O)cc3C2)CC(C)O1 (stereo not drawn)
Q = CC1CCCN(C(=O)CON=C2C=CCCC=CCCOC(=O)c3c(O)cc(O)cc3C2)C1 (stereo not drawn)
R = CC1CC=CC(O)CC=CC(=NOCC(=O)N2CCCCC2)Cc2c(Cl)c(O)cc(O)c2C(=O)O1 (stereo not drawn)
query: Rank descending by pEC50. Answer format: the labels, ordered as requested.
result: R, Q, P

P = CC1=CC(=NOCC(=O)N2CCCCC2)Cc2cc(O)cc(O)c2C(=O)OCCC=CCC1
Q = CCCC1CC=CCCC(C)=CC(=NOCC(=O)N2CCCCC2)Cc2cc(O)cc(O)c2C(=O)O1 (stereo not drawn)
query: Thinking about recorded pEC50 values, which is higher, P or Q ? Reply with the label of the item you choose.
result: P
(P: 7.34, Q: 6.71)
